Target: T1, Biotin-CaSR蛋白 (人体细胞外钙敏感受体, Human extracellular calcium-sensing receptor) (human, UniProt P41180 20-870, limits assumed, biotinylated (Biotin-CaSR); site not stated)
T1 construct: Purified, detergent-solubilised CaSR; It was biotinylated and captured on NeutrAvidin plates for ELISA or on streptavidin biosensors for Octet
T1 sequence (looked up): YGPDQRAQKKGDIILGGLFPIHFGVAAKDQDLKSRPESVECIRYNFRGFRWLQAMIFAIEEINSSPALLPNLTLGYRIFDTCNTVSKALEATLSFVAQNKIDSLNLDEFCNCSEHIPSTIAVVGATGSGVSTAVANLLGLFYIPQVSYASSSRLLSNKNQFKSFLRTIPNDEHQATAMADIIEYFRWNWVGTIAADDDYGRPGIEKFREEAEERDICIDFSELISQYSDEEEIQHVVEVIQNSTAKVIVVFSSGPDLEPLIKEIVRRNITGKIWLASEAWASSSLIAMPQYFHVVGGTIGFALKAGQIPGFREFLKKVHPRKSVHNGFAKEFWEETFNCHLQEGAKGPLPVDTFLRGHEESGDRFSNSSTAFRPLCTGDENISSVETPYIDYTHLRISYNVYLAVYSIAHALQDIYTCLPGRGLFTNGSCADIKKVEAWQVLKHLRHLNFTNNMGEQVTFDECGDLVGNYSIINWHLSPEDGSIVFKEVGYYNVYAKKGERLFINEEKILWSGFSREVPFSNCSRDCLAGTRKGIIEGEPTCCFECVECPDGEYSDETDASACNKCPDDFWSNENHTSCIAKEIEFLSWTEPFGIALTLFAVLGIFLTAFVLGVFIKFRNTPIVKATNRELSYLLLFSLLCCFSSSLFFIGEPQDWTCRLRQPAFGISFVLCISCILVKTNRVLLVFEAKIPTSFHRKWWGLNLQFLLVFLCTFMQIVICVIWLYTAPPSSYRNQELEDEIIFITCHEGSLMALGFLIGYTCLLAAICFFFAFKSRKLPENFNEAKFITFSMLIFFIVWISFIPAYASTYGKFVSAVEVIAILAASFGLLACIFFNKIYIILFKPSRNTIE
Test: ELISA, Biotin-CaSR on NeutrAvidin plate, nanobody titrated 1e-11 to 1e-6 mol/l, anti-HA detection
reportedProperty: EC50
One number for each entry.

binder | EC50
纳米抗体NB32 (VHH, Camel VHH expressed in E. coli and purified on a nickel column; It was detected through an HA tag; also called 抗体株NB32) VHH: QVQLQESGGGSVQAGGSLTLSCAASEYKHRYSTYSMGWFRQAPGKEREGVAAIYSDGGTRYADSVKGRFTISKDNAKSTLYLLMNSLKPEDTAMYYCAASQTFRGWYPYEYNYWGQGTQVTVSS | 3

# next binder below
Which EC50 value belongs to 纳米抗体1C12 (VHH, Camel VHH expressed in E. coli and purified on a nickel column; also called 抗体株1C12) VHH: QVQLQESGGGSVQAGGSLRLSCTASRYTYNSPLYMAWFRQAPGKEREGVAHIDSDGSITYTDSVKGRFTISRDNAKTTLYLQMNNLNPEDTAMYYCAADPLHRWSHRLEAIGYRYWGQGTQVTVSS ?
2.1
